test system: Foxtail, Giant (giant foxtail, Setaria faberi); experiment: Test A postemergence, Foxtail, Giant; format: in vivo; details: Postemergence, 125 g ai/ha; visual injury approx. 10 days; 0 to 100 scale (0 no effect, 100 complete control)
Assign Plant response rating, Foxtail, Giant to each entry below.
Give bare numbers.

[[record]]
compound = "Cc1cc(C)c(N(S(=O)(=O)C(F)(F)F)S(=O)(=O)C(F)(F)F)cc1-c1cc(C(F)(F)F)nn(C)c1=O [Compound 61]"
measurement_name = "Plant response rating, Foxtail, Giant"
result = 0

[[record]]
compound = "Cc1cc(C)c(N(S(=O)(=O)C(F)(F)F)S(=O)(=O)C(F)(F)F)cc1-c1cc(Br)nn(C)c1=O [Compound 67]"
measurement_name = "Plant response rating, Foxtail, Giant"
result = 10


Provide each entry's Plant response rating, Foxtail, Giant from the list below.
1. Cc1cc(C)c(N(S(C)(=O)=O)S(=O)(=O)C(F)(F)F)cc1-c1cc(C(C)C)nn(C)c1=O [Compound 39]
2. Cc1cc(F)c(-c2ccnn(C)c2=O)cc1NS(=O)(=O)C(F)(F)F [Compound 63]
3. Cc1cc(Cl)c(N(S(=O)(=O)C(F)(F)F)S(=O)(=O)C(F)(F)F)cc1-c1cn(C)c(=O)n(C)c1=O [Compound 38]
4. COc1cnn(-c2cc(NS(=O)(=O)C(F)(F)F)c(C)cc2C)c(=O)c1 [Compound 54]

[0, 70, 90, 0]

For the compound shown here, COC1CCN(C(=O)c2cc(NS(=O)(=O)C(F)(F)F)c(C)c(F)c2C)CC1 [Compound 110] , give the reported Plant response rating, Foxtail, Giant.
0
